Exercise: for every item that follows, state its recorded MIC.
tested on: S. pyogenes Cook; experiment: MIC, agar plate dilution method; format: cell-based; details: Streptococcus pyogenes; 37° C., 20 hours, SDA with 5% horse blood; read-out: Antimicrobial activity (MIC)

Record CO[C@@H]1[C@@H](O[C@@H]2O[C@H](C)[C@@H](O[C@H]3C[C@@](C)(OC)[C@@H](OC(=O)CC(C)C)[C@H](C)O3)[C@H](N(C)C)[C@H]2O)[C@@H](CC=O)C[C@@H](C)[C@@H](O)/C=C/C=C/C[C@@H](C)OC(=O)C[C@H]1O . Reported MIC: 0.05 µg/mL

Item: CCC(=O)O[C@@H]1CC(=O)O[C@H](C)C/C=C/C=C/[C@H](O)[C@H](C)C[C@H](CC=O)[C@H](O[C@@H]2O[C@H](C)[C@@H](O[C@H]3C[C@@](C)(O)[C@@H](O)[C@H](C)O3)[C@H](N(C)C)[C@H]2O)[C@H]1OC [MDM-M1, midecamycin M1, reference compound] | MIC: 1.56 µg/mL

Summary for this compound, CCCC(=O)O[C@H]1[C@H](C)O[C@@H](O[C@H]2[C@H](N(C)C)[C@@H](O)[C@H](O[C@H]3[C@@H](CC=O)C[C@@H](C)[C@@H](O)/C=C/C=C/C[C@@H](C)OC(=O)C[C@@H](O)[C@@H]3OC)O[C@@H]2C)C[C@@]1(C)OC(=O)CC [RKM, rokitamycin, reference compound] : MIC is 0.05 µg/mL

Recorded MIC (compound CCC(=O)O[C@H]1[C@H](C)O[C@@H](O[C@H]2[C@H](N(C)C)[C@@H](O)[C@H](O[C@H]3[C@@H](CC=O)C[C@@H](C)[C@@H](O)/C=C/C=C/C[C@@H](C)OC(=O)C[C@@H](O)[C@@H]3OC)O[C@@H]2C)C[C@@]1(C)O [LM-A7, leucomycin A7, reference compound] ): 0.39 µg/mL

Recorded MIC (compound CCCC(=O)O[C@H]1[C@H](C)O[C@@H](O[C@H]2[C@H](N(C)C)[C@@H](O)[C@H](O[C@H]3[C@@H](CC=O)C[C@@H](C)[C@@H](O)/C=C/C=C/C[C@@H](C)OC(=O)C[C@@H](O)[C@@H]3OC)O[C@@H]2C)C[C@@]1(C)OC ): < 0.025 µg/mL

Reported MIC for CC[C@H]1OC(=O)[C@H](C)[C@@H](O[C@H]2C[C@@](C)(OC)[C@@H](O)[C@H](C)O2)[C@H](C)[C@@H](O[C@@H]2O[C@H](C)C[C@H](N(C)C)[C@H]2O)[C@](C)(OC)C[C@@H](C)C(=O)[C@H](C)[C@@H](O)[C@]1(C)O [CAM, clarithromycin, reference compound] was < 0.025 µg/mL

get_value(item= CCCCC(=O)O[C@H]1[C@H](C)O[C@@H](O[C@H]2[C@H](N(C)C)[C@@H](O)[C@H](O[C@H]3[C@@H](CC=O)C[C@@H](C)[C@@H](O)/C=C/C=C/C[C@@H](C)OC(=O)C[C@@H](O)[C@@H]3OC)O[C@@H]2C)C[C@@]1(C)OC , readout=MIC) returns < 0.025 µg/mL
